Listing of recorded pKi by entry.
Target: Proprotein convertase subtilisin/kexin type 6 (Homo sapiens)
Sequence (P29122 whole entry): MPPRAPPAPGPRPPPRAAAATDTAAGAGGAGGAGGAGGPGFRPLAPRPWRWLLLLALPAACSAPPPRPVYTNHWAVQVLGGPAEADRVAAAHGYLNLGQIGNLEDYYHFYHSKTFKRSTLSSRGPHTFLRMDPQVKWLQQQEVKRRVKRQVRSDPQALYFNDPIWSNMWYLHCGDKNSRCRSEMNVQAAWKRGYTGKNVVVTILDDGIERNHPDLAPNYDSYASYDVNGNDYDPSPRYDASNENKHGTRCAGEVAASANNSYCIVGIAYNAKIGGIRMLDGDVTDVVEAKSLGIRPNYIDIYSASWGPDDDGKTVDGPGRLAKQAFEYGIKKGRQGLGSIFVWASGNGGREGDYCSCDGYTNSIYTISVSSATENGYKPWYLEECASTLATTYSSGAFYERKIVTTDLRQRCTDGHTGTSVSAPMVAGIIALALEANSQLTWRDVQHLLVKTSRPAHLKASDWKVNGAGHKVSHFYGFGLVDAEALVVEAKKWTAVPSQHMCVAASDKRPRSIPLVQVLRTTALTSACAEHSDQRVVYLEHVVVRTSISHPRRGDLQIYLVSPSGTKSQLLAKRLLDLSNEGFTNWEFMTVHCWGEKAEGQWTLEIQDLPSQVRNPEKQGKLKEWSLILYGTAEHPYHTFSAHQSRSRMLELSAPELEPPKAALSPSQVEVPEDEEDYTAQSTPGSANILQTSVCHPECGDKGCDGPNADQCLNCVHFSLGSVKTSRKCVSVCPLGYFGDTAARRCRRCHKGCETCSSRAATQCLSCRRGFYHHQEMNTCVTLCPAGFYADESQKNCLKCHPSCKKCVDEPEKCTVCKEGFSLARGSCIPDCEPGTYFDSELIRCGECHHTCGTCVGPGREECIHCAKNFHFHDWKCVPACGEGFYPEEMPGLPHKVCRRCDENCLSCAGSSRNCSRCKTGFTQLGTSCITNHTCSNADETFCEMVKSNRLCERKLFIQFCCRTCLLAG
Test: Inhibition of human recombinant PACE4 expressed in drosophila schneider 2 cells using pyroGlu-Arg-Thr-Lys-Arg-AMC as substrate after 1 hr
Peptide text beside a SMILES is read from it. * marks the point of attachment. X1 = N=C(N)NC/C=C/CN*
Kindly note that pKi refers to -log10 of the concentration in mol/L and answer with the value alone.

{"molecule": "CCCC[C@@H](NC(C)=O)C(=O)N[C@@H](CC(C)C)C(=O)N[C@@H](CC(C)C)C(=O)N[C@@H](CC(C)C)C(=O)N[C@@H](CCCNC(=N)N)C(=O)N[C@H](C(=O)N[C@@H](CCCCN)C(=O)N[C@@H](CCCNC(=N)N)C(N)=O)C(C)C", "study target": "Proprotein convertase subtilisin/kexin type 6 (Homo sapiens)", "pKi": 7.60}

Here is another molecule to look at.
Look up pKi: CC(=O)N[C@@H](CC(C)C)C(=O)N[C@@H](CC(C)C)C(=O)N[C@@H](CC(C)C)C(=O)N[C@@H](CC(C)C)C(=O)N[C@@H](CCCNC(=N)N)C(=O)N[C@H](C(=O)N[C@@H](CCCCN)C(=O)NC/C=C/CNC(=N)N)C(C)C (Ac-LLLLRVK-X1)
8.28
